biological target: EGFR L858R/C797S (Homo sapiens, UniProt P00533, C797S/L858R); assay: Biochemical EGFR kinase inhibition assay (Lance Ultra TR-FRET), double mutant L858R/C797S; details: Km ATP; read-out: IC50 L858R/C797S (nM) Km ATP
Sequence (P00533 25-1210 C797S/L858R): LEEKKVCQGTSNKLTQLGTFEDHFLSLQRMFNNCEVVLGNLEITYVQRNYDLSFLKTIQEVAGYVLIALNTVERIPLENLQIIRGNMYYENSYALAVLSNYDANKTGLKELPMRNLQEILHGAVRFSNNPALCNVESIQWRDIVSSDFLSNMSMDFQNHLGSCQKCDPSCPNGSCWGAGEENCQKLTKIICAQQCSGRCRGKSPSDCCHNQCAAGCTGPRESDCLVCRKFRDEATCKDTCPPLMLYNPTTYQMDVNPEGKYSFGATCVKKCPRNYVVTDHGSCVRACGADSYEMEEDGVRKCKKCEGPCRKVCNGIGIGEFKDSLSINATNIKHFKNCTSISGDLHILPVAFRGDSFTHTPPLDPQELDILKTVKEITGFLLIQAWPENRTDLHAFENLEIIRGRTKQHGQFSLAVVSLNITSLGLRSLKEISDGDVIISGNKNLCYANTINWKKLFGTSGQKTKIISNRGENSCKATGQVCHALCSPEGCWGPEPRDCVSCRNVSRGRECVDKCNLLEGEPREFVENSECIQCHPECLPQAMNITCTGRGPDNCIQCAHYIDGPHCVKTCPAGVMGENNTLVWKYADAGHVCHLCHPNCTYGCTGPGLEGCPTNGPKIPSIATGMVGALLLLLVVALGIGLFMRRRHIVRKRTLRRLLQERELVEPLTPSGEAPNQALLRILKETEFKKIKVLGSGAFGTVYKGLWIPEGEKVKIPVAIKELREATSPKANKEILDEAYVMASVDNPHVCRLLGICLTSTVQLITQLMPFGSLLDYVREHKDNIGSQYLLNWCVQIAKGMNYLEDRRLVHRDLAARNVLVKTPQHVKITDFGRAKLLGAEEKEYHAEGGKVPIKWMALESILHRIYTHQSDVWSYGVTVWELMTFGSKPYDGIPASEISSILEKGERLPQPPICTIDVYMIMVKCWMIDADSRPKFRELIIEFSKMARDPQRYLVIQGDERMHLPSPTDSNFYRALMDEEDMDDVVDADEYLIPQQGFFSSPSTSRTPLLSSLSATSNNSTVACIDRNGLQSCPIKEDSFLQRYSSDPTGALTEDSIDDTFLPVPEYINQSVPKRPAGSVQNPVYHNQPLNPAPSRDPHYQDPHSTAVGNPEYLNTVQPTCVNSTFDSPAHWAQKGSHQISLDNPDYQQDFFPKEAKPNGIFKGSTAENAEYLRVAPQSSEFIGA
Endpoint name: IC50 (nM)

[1] CN(C)CCNC1CCN(c2cc(Nc3ccnc(-c4cnn(S(=O)(=O)C5CC5)c4)n3)ncc2C#Cc2cnn(C3CCOCC3)c2)CC1
[2] CN(C)C[C@H]1CC[C@H](COc2cc(Nc3ccnc(-c4cnn(S(=O)(=O)C5CC5)c4)n3)ncc2C#Cc2cnn(C3CC3)c2)CC1
[3] Cn1cc(C#Cc2cnc(Nc3ccnc(-c4cnn(S(=O)(=O)C5CC5)c4)n3)cc2N2CC(C(C)(C)O)C2)cn1
Exercise: Arrange these compounds by their IC50, starting with the largest number. Returns: the labels arranged in the requested order.
Solution: 3, 2, 1
(3: 34.2 nM, 2: 2.6 nM, 1: 0.9 nM)
